- target.system: UniProt P30305
- assay.summary: Cdc25B inhibition under reducing thiol conditions, late-stage follow-up, Cdc25B inhibitor project, biochemical, beta-mercaptoethanol present, catalytic domain, IC50 (AID 670)
API: label(entry) gives Condition met if the entry's IC50 is strictly smaller than 10 µM; on equality or larger values it gives Condition not met.

Example entries begin here.
>>> category("O=C1C=Cc2ccccc2C1=O [1,2-dihydronaphthalene-1,2-dione]")
"Condition not met"
>>> category("c1ccc(CSc2nnc(-c3ccco3)c(-c3ccco3)n2)cc1 [MLS-0029114.0001]")
"Condition not met"
>>> category("Nc1cccc2cnccc12 [isoquinolin-5-amine]")
"Condition not met"

Field: next molecule
Lookup: Say whether its IC50 is strictly beneath 10 µM. Entry: Cn1ncnc2c(=O)n(C)c(=O)nc1-2
Found: Condition not met

---

- target.system: M-phase inducer phosphatase 2 (Homo sapiens)
- Sequence (P30305 whole entry, the tested form may be a part): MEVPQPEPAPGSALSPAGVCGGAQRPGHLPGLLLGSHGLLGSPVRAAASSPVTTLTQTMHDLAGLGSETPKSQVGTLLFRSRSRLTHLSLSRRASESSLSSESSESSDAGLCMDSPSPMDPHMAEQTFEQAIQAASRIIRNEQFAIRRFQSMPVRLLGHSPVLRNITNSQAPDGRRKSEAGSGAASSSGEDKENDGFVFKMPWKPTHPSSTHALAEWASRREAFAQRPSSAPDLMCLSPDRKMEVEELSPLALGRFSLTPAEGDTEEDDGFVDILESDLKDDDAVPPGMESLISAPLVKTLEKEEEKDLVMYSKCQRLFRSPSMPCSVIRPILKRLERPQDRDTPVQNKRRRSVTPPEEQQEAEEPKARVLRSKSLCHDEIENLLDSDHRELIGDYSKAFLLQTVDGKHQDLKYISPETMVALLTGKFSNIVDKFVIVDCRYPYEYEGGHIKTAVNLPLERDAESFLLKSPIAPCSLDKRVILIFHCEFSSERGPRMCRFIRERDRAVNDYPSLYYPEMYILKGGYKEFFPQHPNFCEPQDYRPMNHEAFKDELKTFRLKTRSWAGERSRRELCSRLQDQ
- assay.summary: Cdc25B inhibition under reducing thiol conditions, late-stage follow-up, Cdc25B inhibitor project, biochemical, beta-mercaptoethanol present, catalytic domain, IC50 (AID 670)
metric: IC50

Completed entries (count: 4):
>>> test_value("N#Cc1c(N)sc(=S)c2c1CCN(Cc1ccccc1)C2")
"33.1 µM"
>>> test_value("O=C1Cc2ccccc2C(=O)N1CCc1ccccc1")
"> 50 µM"
>>> test_value("O=C(Nc1ccc2nc(-c3ccco3)c(-c3ccco3)nc2c1)N1CCCCCC1")
"19.2 µM"
>>> test_value("Cc1c(N=c2c(=O)c3ccccc3c2=O)c(=O)n(-c2ccccc2)n1C")
"> 50 µM"

Lookup: # return recorded IC50 for input COc1ccc2noc3c2c1C(=O)c1ccccc1-3
Found: > 50 µM

Lookup: # return recorded IC50 for input CC(=O)Nc1cc(OC(C)=O)c2nonc2c1OC(C)=O
Found: > 50 µM

Lookup: # return recorded IC50 for input COc1cccc2c(C)c(C(=O)O)[nH]c12
Found: 6.35 µM

Lookup: # return recorded IC50 for input COc1ccc(Br)cc1C=c1sc2nc(-c3ccco3)nn2c1=O
Found: 1.78 µM

Lookup: # return recorded IC50 for input [O-]/[N+](=C\c1ccncc1)c1ccccc1
Found: > 50 µM

Lookup: # return recorded IC50 for input [O-]/[N+](=C\c1ccc(OC(F)F)cc1)c1ccccc1
Found: > 50 µM

Lookup: # return recorded IC50 for input CCOC(=O)C(C(=O)OCC)c1cc(Br)c2noc3c2c1C(=O)c1ccccc1-3
Found: > 50 µM

---

- target.system: M-phase inducer phosphatase 2 (Homo sapiens)
- assay.summary: Cdc25B inhibition under reducing thiol conditions, late-stage follow-up, Cdc25B inhibitor project, biochemical, beta-mercaptoethanol present, catalytic domain, IC50 (AID 670)
metric: pIC50
Friendly reminder that pIC50 comes from taking -log10 of the concentration in mol/L.

>>> test_value("Cc1ccc2c(c1C)NC(C(=O)O)C1CC=CC21 (stereo not given)")
5.38

Lookup: # return recorded pIC50 for input O=C(O)C1Nc2c(O)cccc2C2C=CCC12 (stereo not given)
Found: 5.13

Lookup: # return recorded pIC50 for input CCn1nc(-c2cccs2)nc2c(=O)n(C)c(=O)nc1-2
Found: 4.38

Lookup: # return recorded pIC50 for input Cc1ccc2c(c1)C1C=CCC1C(C(=O)O)N2 (stereo not given)
Found: 5.28

This collection of values is drawn from BindingDB's records for doi:10.7270/Q2NS0S8J.
